A short record of Ki observed with Histamine H3 receptor (Rattus norvegicus, UniProt Q9QYN8) follows.
Sequence (Q9QYN8 whole entry): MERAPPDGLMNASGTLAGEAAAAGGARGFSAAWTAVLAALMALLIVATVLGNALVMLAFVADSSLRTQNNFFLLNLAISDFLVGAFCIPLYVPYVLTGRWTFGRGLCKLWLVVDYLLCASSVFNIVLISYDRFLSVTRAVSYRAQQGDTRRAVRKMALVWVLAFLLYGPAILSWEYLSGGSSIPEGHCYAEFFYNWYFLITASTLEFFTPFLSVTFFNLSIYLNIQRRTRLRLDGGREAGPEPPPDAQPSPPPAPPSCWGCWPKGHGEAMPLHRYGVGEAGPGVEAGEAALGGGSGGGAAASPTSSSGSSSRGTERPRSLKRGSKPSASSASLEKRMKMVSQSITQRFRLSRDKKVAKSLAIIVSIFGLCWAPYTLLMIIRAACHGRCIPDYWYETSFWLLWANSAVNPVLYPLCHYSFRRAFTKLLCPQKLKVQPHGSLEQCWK
QUANTITY NAME: Ki (nM)

entry_smiles=N[C@@H](CO)Cc1c[nH]cn1 quantity_name=Ki measure_unit=nM recorded_measurement=1250
entry_smiles=N[C@H](COCc1ccc(I)cc1)Cc1c[nH]cn1 quantity_name=Ki measure_unit=nM recorded_measurement=251

A: COC[C@@H](N)Cc1c[nH]cn1
B: N[C@@H](COCc1ccc(I)cc1)Cc1c[nH]cn1
C: N[C@H](COCc1ccc(Br)cc1)Cc1c[nH]cn1
q: Hey, quick one: sort these by Ki, low to high? Answer format: the labels, ordered as requested.
a: C, B, A

Origin of the recorded values: BindingDB's records for doi:10.1021/jm980408v
